System: PC-3
Measurement Protocol: Growth inhibition of human PC3 cells after 96 hrs by sulforhodamine B assay
Type: functional, cell-based
Settings: PC-3, 96 h
pIC50: −log10 of the molar value.

Structure Notation | pIC50
COc1cc(OC)cc(N2CCN(C(=O)Nc3nc4cc(F)ccc4nc3OC)CC2)c1 | 7.68
COc1cc(OC)cc(N2CCN(C(=O)Nc3nc4cc(Cl)ccc4nc3OC)CC2)c1 | 7.12
COc1cc(OC)cc(N2CCN(C(=O)Nc3nc4c(OC)cccc4nc3OC)CC2)c1 | 7.24
COc1cc(OC)cc(N2CCN(C(=O)Nc3nc4cc(C)ccc4nc3OC)CC2)c1 | 7.20
COc1cc(OC)cc(N2CCN(C(=O)Nc3nc4c(C)cccc4nc3OC)CC2)c1 | 7.24

---

Test system: HepG2
Measurement Protocol: Growth inhibition of human HepG2 cells after 96 hrs by sulforhodamine B assay
Format: functional, cell-based
Settings: HepG2, 96 h

Structure Notation | IC50 / nM
COc1cc(OC)cc(N2CCN(C(=O)Nc3nc4cc(F)ccc4nc3OC)CC2)c1 | 19
COc1cc(OC)cc(N2CCN(C(=O)Nc3nc4cc(Cl)ccc4nc3OC)CC2)c1 | 63
COc1cc(OC)cc(N2CCN(C(=O)Nc3nc4cc(C)ccc4nc3OC)CC2)c1 | 45
COc1cc(OC)cc(N2CCN(C(=O)Nc3nc4c(OC)cccc4nc3OC)CC2)c1 | 57
COc1cc(OC)cc(N2CCN(C(=O)Nc3nc4c(C)cccc4nc3OC)CC2)c1 | 63
